# Tested on: NMDA receptor
# experiment description: [3H]MK-801 binding assay, NMDA receptors in guinea pig brain membranes
# run parameters: compared to that of Memantine
Kindly state Relative affinity for each of the entries shown.
Numbers only.

| molecule | Relative affinity |
| --- | --- |
| NC12CC3CC4C1CC1CC2C(C3)C4(N)C1 | 0.006 |
| OC12CC3CC4C1CC1CC2C(C3)C4(O)C1 [MDT-12, 1,6-dihydroxydiamantane] | 0.077 |
| CC12CC3CC(C)(C1)CC(N)(C3)C2 [Memantine, 1-amino-3,5-dimethyladamantane, reference compound] | 1 |

The record that follows has no Relative affinity shown yet.
The reported NMDA receptor Relative affinity of O=C(O)C12CC3CC4C5CC(CC41)CC2C5C3 is 0.063

---

# test system: NMDA receptor
# experiment description: [3H]MK-801 binding assay, NMDA receptors in guinea pig brain membranes
# run parameters: [3H]MK-801 1 nM, guinea pig brain membranes; read-out: Ki at the NMDA site (standard compounds)
assay readout: pKi
Numbers only, as −log10 of the molar value.

Noted for CC12CC3CC(C)(C1)CC(N)(C3)C2 [Memantine, 1-amino-3,5-dimethyladamantane, reference compound] : its pKi reads 6.22

---

# System: NMDA receptor
# experiment description: [3H]MK-801 binding assay, NMDA receptors in guinea pig brain membranes
# run parameters: compared to that of Memantine
# if measured Relative affinity < 0.02: satisfied  # else: not satisfied

Here's what some known entries look like.
| molecule | assigned category |
| --- | --- |
| O=C(O)C12CC3CC4C1CC1CC2C(C3)C4(C(=O)O)C1 | not satisfied |
| NC12CC3CC4C5CC(CC41)CC2C5C3 | not satisfied |
| NC12CC3C4CC5(N)CC3C(C1)C(C5)C4C2 | satisfied |
| OC12CC3CC4C5CC(CC41)CC2C5C3 [MDT-10, 1-hydroxydiamantane] | satisfied |

With those in mind, consider the next molecule.
Exercise: Regarding NC12CC3C4CC5CC3C(C1)C(C5)C4C2 , kindly confirm whether its Relative affinity is beneath 0.02.
Key: satisfied
